Test: Metabolic stability in Sprague-Dawley rat hepatocytes assessed as half life at 5 microM incubated upto 180 mins by LC/MS analysis
Type: ADME, cell-based, Hepatocyte
attribute_measured: half-life at 5 µM (min)
Write the number in min without appending the unit.

Lookup result for CCOc1ccc2ccc(=O)oc2c1 ; measured half-life at 5 µM: 47

----------
Assay: cells
Settings: Homo sapiens, SK-OV-3, 1 h
Description: Inhibition of PI3K/mTOR signalling pathway in human SKOV3 cells harboring PI3Kalpha H1047R mutant and HER2 receptor expression assessed as inhibition of S6 phosphorylation at S235/236 residue incubated for 1 hr by ICW assay
pIC50: −log10 of the molar value.
attribute_measured: pIC50

structure_string	value_measured
Nc1cc(C(F)F)c(-c2nc(C3=CCOCC3)nc(N3C4CCC3COC4)n2)cn1	7.03
Nc1cc(C(F)F)c(-c2nc(C3CCOCC3)nc(N3C4CCC3COC4)n2)cn1	7.07
